# credit: PubChem BioAssay (EPA / NIEHS)

- assay info: CCTE_Shafer_MEA_dev_network_spike_number: CCTE's Neural Network Formation Assay for Number of Network Spikes, Shafer Lab (AID 2284048);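 further: synchronized bursts across electrodes counted on days 5 7 9 12 and integrated as AUC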
Active and inactive are the calls of the source. How the source made its calls: active means hit-call score of the fitted dose curve at least 0.9, where 1 is the maximum; inactive means score below 0.9.
Field 'call' accepts t = active, f = inactive

compound: Cn1sc(Cl)cc1=O
discrete label: t

compound: CCC(=O)C(CC(C)N(C)C)(c1ccccc1)c1ccccc1 (configuration not stated)
discrete label: f

compound: O=C(O)C(F)(F)C(F)(F)C(F)(F)C(F)(F)C(F)(F)C(F)(F)F
discrete label: f

compound: C=C(C)C(=O)[O][Sn]([CH2]CCC)([CH2]CCC)[CH2]CCC
discrete label: t

Problem: So what was the verdict on ClC1(Cl)C2(Cl)C3(Cl)C4(Cl)C(Cl)(Cl)C5(Cl)C3(Cl)C1(Cl)C5(Cl)C24Cl (configuration not stated) in this test?
Solution: t

Problem: // next record `CC(=O)[O][Hg][c]1ccccc1`
Solution: t

Problem: Another compound: `CC(C)(C)c1cc(O)ccc1O`
Solution: f

###

- assay info: ATG_M_06_TRANS: Attagene TRANS-FACTORIAL HepG2 Assay for M06 Transcription Factor (Internal Marker) (AID 2282983);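 further: reporter transcript level by RT-PCR then capillary electrophoresis fluorescence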
- measurement context: HepG2 Attagene TRANS M06 internal marker reporter
Records with an inconclusive call do not appear. Calls of active or inactive are those of the source. The calls were made as follows: active = hit-call score of the fitted dose curve at least 0.9, where 1 is the maximum; inconclusive = response in the unintended direction; inactive = score below 0.9.
Classes to choose from: active, inactive

A selection of reference data follows.
molecule: CC(=O)C(Cl)C(=O)N(C)C (stereo not drawn)
discrete label: inactive

molecule: N#CCc1ccc(Cl)cc1
discrete label: inactive

molecule: COP(=S)(OC)Oc1ccc(Sc2ccc(OP(=S)(OC)OC)cc2)cc1
discrete label: inactive

Problem: For this molecule, state the assay outcome: `Clc1nc(Cl)nc(Cl)n1`
Solution: inactive

Problem: Also, OCC(O)CCl (stereo not drawn) please.
Solution: inactive

Problem: Same read-out for `OCc1ccco1` ?
Solution: inactive

Problem: Thanks! And `Cl/C=C/Cl` ?
Solution: inactive

Problem: Another: CCSC(C)CC1CC(=O)C(C(CC)=NOC/C=C/Cl)=C(O)C1 (stereo not drawn)
Solution: inactive

###

- Read-out: Heat shock 70 kDa protein 1 (HSPA1A), gene 3303
- assay info: LTEA_HepaRG_HSPA1A: Life Technologies and Expression Analysis (LTEA) Assay for Heat shock 70 kDa protein 1 (HSPA1A) using HepaRG (AID 2283502)
- measurement context: mRNA level, 48 h; actives raise or lower the signal
Activity calls are given as the source filed them. How the source made its calls: active means hit-call score of the fitted dose curve at least 0.9, where 1 is the maximum; inactive means score below 0.9.
Mark one answer only. Choices: active, inactive

Worked examples follow.
molecule: CCOP(=S)(OCC)Oc1nc(Cl)c(Cl)cc1Cl
discrete label: inactive

molecule: CC(=O)[O][Hg][c]1ccccc1
discrete label: active

molecule: Cn1sc(Cl)cc1=O
discrete label: inactive

molecule: CCC(=O)C(CC(C)N(C)C)(c1ccccc1)c1ccccc1 (configuration not stated)
discrete label: inactive

molecule: C=CC(=O)OCCCCCC(C)C
discrete label: inactive

Problem: What did the test return for `C[C@@H]1C[C@@H]([C@H](O)CC2CC(=O)NC(=O)C2)C(=O)[C@@H](C)C1` ?
Solution: active

Problem: # repeat for `ClCC(Cl)CCl`
Solution: inactive

Problem: Next up: `Oc1cccc2cccnc12`
Solution: inactive

###

- assay info: BSK_SAg_PBMCCytotoxicity: PBMC Cytotoxicity Assessment in the BioMAP Diversity Plus: SAg Assay (AID 2283093);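 further: PBMC viability measured as Alamar Blue reduction fluorescence at 546/580 nm; fitted both ways against DMSO so a hit may be loss or gain of signal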
- measurement context: primary human HUVEC with PBMC
- Procedure: BSK_SAg is a cell-based, multiplexed-readout assay that uses umbilical vein endothelium and peripheral blood mononuclear cells, a human vascular primary cell co-culture, with measurements taken at 24 hours after chemical dosing in a 96-well plate.BSK_SAg_PBMCCytotoxicity is an assay component measured in the BSK_SAg assay. It measures Alamar blue related to cell death using Alamar Blue Reduction technology.Data from the assay component BSK_SAg_PBMCCytotoxicity was analyzed into 1 assay endpoint. […]
Activity calls are given as the source filed them. Rule for the calls: active = hit-call score of the fitted dose curve at least 0.9, where 1 is the maximum; inactive = score below 0.9.
Please state which outcome applies, choosing from active, inactive

Problem: // param item: `CC(C)(C)c1cc(O)ccc1O` ; yields the recorded call
Solution: active

Problem: Can you check `ClC1=C(Cl)[C@]2(Cl)[C@H]3[C@H]([C@H]4C=C[C@H]3C4)[C@@]1(Cl)C2(Cl)Cl` next?
Solution: active

Problem: Cool, now `CCOP(=S)(OCC)SCCS(=O)(=O)CC`
Solution: inactive

Problem: Would you kindly repeat that for `O=C(O)C(F)(F)C(F)(F)C(F)(F)C(F)(F)C(F)(F)C(F)(F)F` ?
Solution: inactive

Problem: Moving on to `COP(=S)(OC)Oc1c(Cl)cc(C)cc1Cl`
Solution: inactive
